Each entry below carries its recorded pIC50.
- Tested on: MKN1 cells
- method.notes: MKN1 CTG proliferation assay (120 h) (gastric cancer, wt amplified)
- Type: cell-based
- settings: Homo sapiens, MKN-1
pIC50 field: float, defined as -log10 of concentration (mol/L).

Sample answers from the record:
*Q* # return pIC50 for `C[C@H](Oc1nc(-c2onc3c2CCC[C@@]32CCCc3sc(N)c(C#N)c32)nc2c1n(C)c(=O)n2[C@@]12COC[C@@H]1C2)[C@@H]1CCCN1C` , test system: MKN1 cells
*A* 8.30

*Q* # return pIC50 for `C[C@H](Oc1nc(-c2onc3c2CCC[C@@]32CCCc3sc(N)c(C#N)c32)nc2c1cnn2[C@@H]1CCOC1)[C@@H]1CCCN1C` , test system: MKN1 cells
*A* 6.81

*Q* # return pIC50 for `CO[C@@H]1C[C@@H]([C@H](C)Oc2nc(-c3noc4c3CCC[C@@]43CCCc4sc(N)c(C#N)c43)nc3c2CN(C2COC2)C[C@]32CCOC2)N(C)C1` , test system: MKN1 cells
*A* 7.72

*Q* # return pIC50 for `CC(C)n1c(=O)n([C@@H]2CCOC2)c2nc(-c3onc4c3CCC[C@@]43CCCc4sc(N)c(C#N)c43)nc(O[C@@H](C)[C@@H]3CCCN3C)c21` , test system: MKN1 cells
*A* 6.37

*Q* # return pIC50 for `C[C@H](Oc1nc(-c2onc3c2CCC[C@@]32CCCc3sc(N)c(C#N)c32)nc2c1N(C)C(=O)CN2[C@@H]1CCOC1)[C@@H]1CCCN1C` , test system: MKN1 cells
*A* 6.50

*Q* # return pIC50 for `CO[C@H]1CCN(C)[C@@H]1[C@H](C)Oc1nc(-c2noc3c2CCC[C@@]32CCCc3sc(N)c(C#N)c32)nc2c1n(C)c(=O)n2[C@@H]1CCCOC1` , test system: MKN1 cells
*A* 7.85

Next:
*Q* # return pIC50 for `C[C@H](Oc1nc(-c2noc3c2CCC[C@@]32CCCc3sc(N)c(C#N)c32)nc2c1cnn2[C@@H]1CCOC1)[C@@H]1CCCN1C` , test system: MKN1 cells
*A* 7.20

###

Each entry below carries its recorded solubility at 24 h.
- method.notes: Solubility measurement (DMSO solution precipitation method)
- Assay type: physicochemical
- settings: aqueous buffer, kinetic from dmso stock, McIlvaine buffer pH 6.8, 24 h, read-out: solubility pH 6.8

*Q* Name the recorded solubility at 24 h of the item `C[C@H](Oc1nc(-c2onc3c2CCC[C@@]32CCCc3sc(N)c(C#N)c32)nc2c1n(C)c(=O)n2[C@@]12COC[C@@H]1C2)[C@@H]1CC[C@H](C)N1C` in your answer.
*A* 85 µg/mL

*Q* Name the recorded solubility at 24 h of the item `C[C@H](Oc1nc(-c2onc3c2CCC[C@@]32CCCc3sc(N)c(C#N)c32)nc2c1n(C)c(=O)n2[C@H]1CCC[C@@H]1O)[C@@H]1CCCN1C` in your answer.
*A* > 146 µg/mL

Consider the record given below.
*Q* Name the recorded solubility at 24 h of the item `C[C@H](Oc1nc(-c2noc3c2CCC[C@@]32CCCc3sc(N)c(C#N)c32)nc2c1CN(C1COC1)C[C@]21CCOC1)[C@@H]1CCCN1C` in your answer.
*A* > 140 µg/mL
